All figures here come from patent US9745328B2.

assay-target: UniProt:P20292
Sequence (P20292 whole entry): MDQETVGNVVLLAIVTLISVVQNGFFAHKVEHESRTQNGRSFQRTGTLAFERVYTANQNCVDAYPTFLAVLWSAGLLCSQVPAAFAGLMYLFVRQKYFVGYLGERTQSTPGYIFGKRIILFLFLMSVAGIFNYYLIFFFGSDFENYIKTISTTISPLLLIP
test: FLAP binding assay (HTRF format)
particulars: Table 6 (additional runs), human FLAP wild type
This section presents compounds with their documented Ki values.
assay-readout: Ki (nM)

[[record]]
compound = "CC(C)CS(=O)(=O)c1ccccc1-c1ccc(-c2cnc(N)cn2)c(F)c1 [Example 193]"
assay_readout = "Ki"
experimental_value = 30.9

[[record]]
compound = "CC(=O)N1CCN(S(=O)(=O)c2ccccc2-c2ccc(-c3cnc(N)cn3)c(F)c2)CC1 [Example 57]"
assay_readout = "Ki"
experimental_value = 13.4

[[record]]
compound = "Nc1cnc(-c2ccc(-c3ccccc3S(=O)(=O)N3CCc4[nH]ncc4C3)cc2F)cn1 [Example 128]"
assay_readout = "Ki"
experimental_value = 0.8

[[record]]
compound = "CC(C)(C)OC(=O)NCCNS(=O)(=O)c1ccccc1-c1ccc(-c2cnc(N)cn2)c(F)c1 [Example 151]"
assay_readout = "Ki"
experimental_value = 1.3

[[record]]
compound = "Nc1cnc(-c2ccc(-c3ccccc3S(=O)(=O)N3CCCC3)cc2F)cn1 [Example 48]"
assay_readout = "Ki"
experimental_value = 7

[[record]]
compound = "Nc1cnc(-c2ccc(-c3ccccc3S(=O)(=O)NCC3CC3)cc2F)cn1 [Example 90]"
assay_readout = "Ki"
experimental_value = 0.9

[[record]]
compound = "N#CCCNS(=O)(=O)c1ccccc1-c1ccc(-c2cnc(N)cn2)c(F)c1 [Example 169]"
assay_readout = "Ki"
experimental_value = 2.9

[[record]]
compound = "CC(C)(CO)CNS(=O)(=O)c1ccccc1-c1ccc(-c2cnc(N)nc2)c(F)c1 [Example 251]"
assay_readout = "Ki"
experimental_value = 4.5

